Value source: paper PMC10449848

target-entity: human HSD17B13 (Homo sapiens)
Construct: human HSD17B13 (residues 2-300, NP_835236.2); 10x His (N); TEV protease site (N); made in house; host or cells: Sf9 (baculovirus)
assay: HSD17B13 purified protein biochemical enzyme activity assay, NAD(P)H-Glo luciferase readout
assay-conditions: IC 50 mean, Supplementary Figure 8 source data, unit inferred, uM printed
Sequence (Q7Z5P4 2-300): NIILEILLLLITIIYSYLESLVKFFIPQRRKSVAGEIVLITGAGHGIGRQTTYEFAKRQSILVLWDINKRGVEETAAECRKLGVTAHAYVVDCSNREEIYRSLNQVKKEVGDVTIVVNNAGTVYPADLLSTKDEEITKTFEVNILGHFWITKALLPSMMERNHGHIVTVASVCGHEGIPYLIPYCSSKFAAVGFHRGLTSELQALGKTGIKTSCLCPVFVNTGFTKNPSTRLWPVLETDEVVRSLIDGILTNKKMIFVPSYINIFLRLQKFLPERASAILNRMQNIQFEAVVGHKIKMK
metric-name: IC50 (µM)
Field: numeric (µM). Do not append units.

## Task Requested read-out IC50, target or system human HSD17B13 (Homo sapiens), entry O=C(NC[C@]1(O)CC[C@H](COc2ccccc2F)CC1)c1ccc(O)c(F)c1
## Result 0.18

* * *

target-entity: human HSD17B13 (Homo sapiens)
Construct: expressed in transfected cells
Sequence (Q7Z5P4 20-300): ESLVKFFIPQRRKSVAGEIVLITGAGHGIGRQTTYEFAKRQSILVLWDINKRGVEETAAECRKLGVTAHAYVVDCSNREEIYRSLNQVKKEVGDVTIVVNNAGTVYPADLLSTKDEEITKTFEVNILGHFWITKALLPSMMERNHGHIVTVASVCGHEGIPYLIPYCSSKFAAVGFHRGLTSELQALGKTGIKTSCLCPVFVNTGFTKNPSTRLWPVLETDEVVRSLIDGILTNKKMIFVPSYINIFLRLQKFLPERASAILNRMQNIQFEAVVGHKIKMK
assay: Cell assay: HEK cells stably expressing wild-type human HSD17B13, estrone production by LCMS
Format: cell-based
assay-conditions: HEK cells overexpressing HSD17B13, β-estradiol substrate
metric-name: pIC50
# pIC50 is unitless: minus log10 of the molar concentration; print number only

## Task Requested read-out pIC50, target or system human HSD17B13 (Homo sapiens), entry O=C(NC[C@]1(O)CC[C@H](COc2ccccc2F)CC1)c1ccc(O)c(F)c1 [Compound 1]
## Result 6.24

* * *

target-entity: human HSD17B13 (Homo sapiens)
Construct: human HSD17B13 (residues 2-300, NP_835236.2); 10x His (N); TEV protease site (N); made in house; host or cells: Sf9 (baculovirus)
assay: HSD17B13 purified protein biochemical enzyme activity assay, NAD(P)H-Glo luciferase readout
assay-conditions: Leukotriene B4 as substrate, NAD+ cofactor
metric-name: IC50
Note: a bare number is incomplete; add the unit.

## Task Requested read-out IC50, target or system human HSD17B13 (Homo sapiens), entry O=C(NC[C@]1(O)CC[C@H](COc2ccccc2F)CC1)c1ccc(O)c(F)c1 [Compound 1]
## Result 250 nM
